Test system: K-562 leukemia
assayRemarks: NCI tumour cell line growth inhibition, 48 h
Exercise: state measured TGI for each of the compounds provided.

Example entries begin here.
{"compound": "O=C(NC1CCC[C@H]1OC(=O)c1ccccc1)c1ccccc1 (stereo partly drawn)", "readoutName": "TGI", "reportedMeasurement": "> 100 µM"}
{"compound": "COC(=O)/C=C1\\C(CO[Si](C)(C)C(C)(C)C)OC(n2cc(C)c(=O)n(C)c2=O)C1O[Si](C)(C)C(C)(C)C (stereo not drawn)", "readoutName": "TGI", "reportedMeasurement": "> 100 µM"}
{"compound": "O=C(Nc1ccc(Br)cc1)C(=O)C(C(=O)c1ccc(Cl)c(Cl)c1)C1OC(=O)c2ccccc21 (stereo not drawn)", "readoutName": "TGI", "reportedMeasurement": "> 100 µM"}
{"compound": "CCSC12OC3(CCCCCN3C1=O)C1C(=O)N(c3ccccc3)C(=O)C12 (stereo not drawn)", "readoutName": "TGI", "reportedMeasurement": "> 100 µM"}
{"compound": "C=CC1=C(C)C(/C=c2\\[nH]/c(=C/c3[nH]c(CC4NC(=O)C(C)/C4=C\\C)c(C)c3CCC(=O)O)c(CC(=O)O)c2C)=NC1=O (stereo not drawn)", "readoutName": "TGI", "reportedMeasurement": "> 100 µM"}

Dear colleague, could you send me TGI for each of the items below? Thanks.
1. Cc1ccc(C)n1-c1ccccc1C1C=Cn2c(=O)oc3c(OC(C)C)c(OC(C)C)c(O)c1c32 (stereo not drawn)
2. c1ccc2c(c1)nnn2C1CCCCO1 (stereo not drawn)
3. CCOC(=O)c1ccc2nc3n(c2c1)C(c1c(F)cccc1F)SC3 (stereo not drawn)
4. C=C1C(=O)O[C@@H]2/C=C(/C)[C@@H](OC(C)=O)C[C@@H](O)/C(C)=C\[C@@H](OC(=O)[C@]3(C)O[C@@H]3C)[C@@H]12
5. COc1cc2c3c(n(C)c(=O)c2cc1OC)-c1cc2c(cc1/C3=C\CCCCl)OCO2
6. Clc1ccc(C2SCc3nc4ccccc4n32)cc1 (stereo not drawn)
7. [N-]=[N+]=C(C(=O)CN1CCCC1=O)S(=O)(=O)c1ccccc1
8. CC(C)(C)NCC(O)c1ccccc1Cl (stereo not drawn)

Result:
> 100 µM
> 100 µM
> 100 µM
17.5 µM
> 100 µM
> 100 µM
> 100 µM
> 100 µM

Can you give me TGI for all of these, one by one?
1. COc1cc(OC)c(/C=C/C(=O)c2c(OC)cc(OC)cc2OC)c(OC)c1
2. c1ccc2c(N=NSc3ncnc4nc[nH]c34)c3ccccc3nc2c1
3. O=S(=O)(O)c1cc(S(=O)(=O)O)c2cc(N=Nc3ccc(N=Nc4ccc(/C=C/c5ccc(N=[N+]([O-])c6ccc(/C=C/c7ccc(N=Nc8ccc(N=Nc9ccc%10cc(S(=O)(=O)O)cc(S(=O)(=O)O)c%10c9)cc8)cc7S(=O)(=O)O)c(S(=O)(=O)O)c6)cc5S(=O)(=O)O)c(S(=O)(=O)O)c4)cc3)ccc2c1
4. O=C1CCC2(O)c3ccccc3C2Cc2ccccc21 (stereo not drawn)

Result:
["> 100 µM", "11.1 µM", "> 100 µM", "> 100 µM"]

Required: TGI, one value per compound below.
1. Cc1cc(OCc2ccc(C(F)(F)F)cc2)c2c(c1)C(=O)C=C(NCCN1CCCC1)C2=O
2. Nc1nc(-c2ccc3c(c2)/C(=C\c2cc(Br)c(O)c(Br)c2)C(=O)N3)cs1
3. CC1(c2ccc(F)cc2)C2C(=O)NC(=O)C1C(=O)NC2=O (stereo not drawn)
4. N#CCCN(CCCCN(CCC#N)C(=O)Nc1ccccc1)C(=O)Nc1ccccc1

Result:
["6.18 µM", "> 25 µM", "> 100 µM", "> 100 µM"]

// each compound listed below needs its TGI
1. O=C(O)C(Cc1ccccc1)Cc1ccccc1
2. CC1(C)C2CC3C(C)(C2)C31c1cc(Cl)ccc1N (stereo not drawn)

Result:
1: > 100 µM; 2: 23.5 µM

Attribution: PubChem BioAssay (NCI)
